Target: T1, Rab8a(Q67L + T72E), phosphomimetic mutant, residues 1-181 (human, UniProt P61006 1-181, Q67L | T72E)
T1 construct: Rab8a, human, residues 1-181, Q67L + T72E; Tag removed with thrombin; also called Rab8^TE; Rab8TE; source: E. coli, purified (Ni2+-agarose, Superdex 75); not shown: His6, N-terminal, cleaved
T1 sequence (looked up): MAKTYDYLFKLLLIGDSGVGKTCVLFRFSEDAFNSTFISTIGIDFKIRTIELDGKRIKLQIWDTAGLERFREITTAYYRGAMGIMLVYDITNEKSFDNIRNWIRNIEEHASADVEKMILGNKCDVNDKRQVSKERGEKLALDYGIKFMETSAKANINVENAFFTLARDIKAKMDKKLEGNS
Test: ITC; Rab8^TE/pRab8a (400-600 uM) injected into RILPL2 (40-60 uM); 20 mM Tris-HCl, 150 mM NaCl, 5 mM MgCl2, 1 mM DTT, pH 7.5; triplicate
Details: both partners purified
recordedEndpoint: Kd (µM)
// return numeric value only (unit: µM, not printed)

What does the data say about its Kd? Entry: NRPRFTLQELRDVLQERNKLKSQLLVVQEELQCYKSG (peptide, UniProt Q969X0 129-165, looked up, source: synthetic peptide (GenScript); not shown: His6, N-terminal, kept) [His6-RILPL2 129-165 synthetic peptide (minimal Rab-binding domain)]
3.4
